Target: T1, recombinantly expressed human FcεRIa-Fc protein (human, UniProt P12319 26-205)
T1 chain: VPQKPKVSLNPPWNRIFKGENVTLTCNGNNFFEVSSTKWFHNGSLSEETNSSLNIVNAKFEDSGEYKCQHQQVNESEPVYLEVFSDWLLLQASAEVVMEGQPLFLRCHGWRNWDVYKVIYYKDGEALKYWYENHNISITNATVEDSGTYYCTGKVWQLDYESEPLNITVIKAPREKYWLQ
Assay: blocking ELISA; blocking human IgE binding
measured_quantity: pIC50
Give only the number. pIC50 is defined as minus log10 of concentration in molar units.

What measured pIC50 goes with binding protein DB366 (designed binder) CADSNPRGVSVFLFPPKPKDTLMISRTPEVTCVVVDLAPSKGTVKFNWYVDGVEVHNAKTKPREKQRNGTLTVVSVLTVLHQDWLNGKEYKCKVTHPHLPRALEKTISKAKGQPREPQVYTLPPSREEMTKNQVSLTCLVKGFYPSDIAVEWESNGQPENNYKTTPPVLDSDGSFFLYSKLTVDKSRWQQGNVFSCSVMHEALHNHYTQKSLSLSPGK ?
7.79
